B1: LINE1-full (parent)
chain: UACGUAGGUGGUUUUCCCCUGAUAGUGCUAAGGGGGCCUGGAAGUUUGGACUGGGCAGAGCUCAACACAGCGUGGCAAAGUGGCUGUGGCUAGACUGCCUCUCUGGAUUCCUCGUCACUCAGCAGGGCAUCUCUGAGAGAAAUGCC

Variants of: B1
Experiment: self-cleavage, relative activity (ratio to wild type); higher = more cleavage; in vitro, sequencing; the parent is a self-cleaving ribozyme
Binary classification by self-cleavage, with 0.9 as an inclusive lower bound for T; all other cases are F.

// known answers, use as guide
record.sequence	qualitative.label
UACGUAGGUGGUUAUCCCCUGAUAGUGCUAAGGGGGCCUGGAAGUUUGGACUGGGCAGAGCUCAACACAGCGUGGCAAAGUGGCUGUGGCUAGACUGCCUCUCUGGAUUCCUCGUCACUCAGCAGGGCAUCUCUGAGGGAAAUGCC	T
UACGUAGGUGGUUUUCCCCUGAUAGUGCUAAGGGGGCCUGGAAGUUUGGACAGGGCAGAGCUCAACACAGCGUGGCAAAGUGGCUGUGGCUAGACUGCCUCUCUGGAUUCCUCGUCACUCAGCAGCGCAUCUCUGAGAGAAAUGCC	T

Pending variant:
Say whether `UACGUAGGUGGUUUUCCCCUGAUAGUGCUAAGGGGGCCUGGAAGUUUGGACUGGGCAGAGCUCAACACGGCGUAGCAAAGUGGCUGUGGCUAGACUGCCUCUCUGGAUUCCUCGUCACUCAGCAGGGCAUCUCUGAGAGAAAUGCC` shows self-cleavage of 0.9 or more. F
